From: patent US20240294635A1

biological target: T1, CD47 on Jurkat cells (UniProt Q08722 19-323, limits assumed); assay: flow cytometry on Jurkat cells, competition with Human-SIRPα-mFc
T1 construct: whole, on cells; Jurkat is a human T cell line
READOUT_TYPE: IC50 (µg/mL)
The reply should be a number in µg/mL, with the unit left off.

Example cases with answers are listed next.
Incoming: What does the record list as IC50 for Xi2H8 (antibody, human IgG4 S228P, kappa, V domains shown, mouse variable regions on human IgG4 (EU S228P) and human kappa constant regions; also called chimeric 2H8 antibody) VH: QVQLKESGPGLVAPSQSLSITCTVSGFSLTNYGVHWVRQPPGKGLEWLGIIWAGGSTNYNSALMSRLSISKDNSKSQVFLKMNSLQTDDTAMYYCARDDYASMDYWGQGTSVTVSS VL: DAFMTQTPLSLPVSLGDQASISCRSSQSLVHSNGNTYLHWYLQKPGQSPKLLIYKVSNRFSGVPDRFSGSGSGTDFTLKISRVEAEDLGVYFCSQSTHVPYTLGGGTKLEIKR ?
Outgoing: 27

Incoming: Recorded IC50 for Xi16E5 (antibody, human IgG4 S228P, kappa, V domains shown, mouse variable regions on human IgG4 (EU S228P) and human kappa constant regions; also called chimeric 16E5 antibody) VH: EVQLQQSGPELKKPGETVKISCKASGYTFTNYGMNWVKQVPGKGLKWMGWINTNTGEPTYAEEFKGRFAFSLETSARTAFLQINNLKNEDTATYFCTRFSHLRGPMDYWGQGASVTVSS VL: DAVMTQTPLSLPVSLGDQASISCRSSQSLVHSNGYTYLHWYLQKPGQSPKLLIYKVSNRFSGVPDRFSGSGSGTDFTLKISRLEAEDLGVYFCSQSTHVPPTFGGGTKLEIKR , please?
Outgoing: 4.86

Continuing:
Incoming: Tell me the measured IC50 of Xi3F10 (antibody, human IgG4 S228P, kappa, V domains shown, mouse variable regions on human IgG4 (EU S228P) and human kappa constant regions; also called chimeric 3F10 antibody) VH: EVQLQQSVAELMKPGASVKIYCKATGYTFSRYWIEWVKQRPGHGLEWIGEFIPGSDTTNFNEKFKGKATFTAEISSNTAYMQLSSLTSEDSAVYFCARGGLRRMDYWGQGTSVTVSS VL: DIVMTQTPAIMSASPGEKVTMTCRASSSVSSTYLHWYQQKSGASPKLWIYTTSTLASGVPARFSGSGSGTSYSLTISSVEAEDAATYYCQQFSDSTWTFGGGTKLEIKR , please.
Outgoing: 0.358

Incoming: I am curious: what IC50 value has been reported for Xi14A9 (antibody, human IgG4 S228P, kappa, V domains shown, mouse variable regions on human IgG4 (EU S228P) and human kappa constant regions; also called chimeric 14A9 antibody) VH: EVQLQQSGAEVARPGASVKLSCTVSGFNIEDDYIEWVKQRPEQGLEWIGRIDPANDKTKYAPKFQDKATITGDTSSNTAYLQLSSLTSEDTAVYYCTRPGLRRYYSMDYWGQGTSVTVSS VL: NIVLTQSPKSMSMSVGERVTLSCKASENVVSYVSWYQQKPEQSPKLLIYGASNRYTGVPDRFIGSGSSTDFTLIISSFQPEDLADYHCGQSYSYPLTFGAGTKLELKR ?
Outgoing: 1.28
